Biological target: Influenza hemagglutinin H3N2-HA (Influenza A virus)
Assay: filter
Details: Trebler-joined arms, antisense DNA of RHA06 hybridised at AS:aptamer 2:1; dot blot, two arms blocked
recorded_metric: Kd (nM)
Please give a number only; it is taken to be in nM.

Problem: Look up Kd for this sequence: GGGTTTGGGTTGGGTTGGGTTTTTGGGTTTGGGTTGGGTTGGGAAAAATTTTTCTCTCGC [Trident RHA06 + antisense 2:1]
Result: 7.9

---

Molecular target: Troponin I (cardiac) (UniProt P19429)
Sequence (P19429 2-210): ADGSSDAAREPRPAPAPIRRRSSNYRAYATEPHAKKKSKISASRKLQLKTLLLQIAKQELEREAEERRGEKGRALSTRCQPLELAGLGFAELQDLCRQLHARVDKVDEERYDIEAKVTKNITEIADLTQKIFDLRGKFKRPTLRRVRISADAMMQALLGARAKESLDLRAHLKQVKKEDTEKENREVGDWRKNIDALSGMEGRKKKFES
Assay: filter
Conditions: three identical arms joined by Trebler, root TTTTT-Biotin
recorded_metric: Kd (nM)
Please give a number only; it is taken to be in nM.

Problem: Look up Kd for this sequence: GGCAGCAGGAAGACAAGACATGGGTGGCGGGGACGGGGCGATGGGAACTTAGATTGCTAGTGGTTCTGTGGTTGCTCTGTTTTTTCTCTCGC [Trimeric (trident) TnAp1]
Result: 4

---

Biological target: Influenza hemagglutinin H3N2-HA (Influenza A virus)
Test: filter
Conditions: Trebler-joined arms, antisense DNA of RHA06 hybridised at AS:aptamer 1:1; dot blot, one arm blocked
recorded_metric: Kd (nM)
Please give a number only; it is taken to be in nM.

Problem: Look up Kd for this sequence: GGGTTTGGGTTGGGTTGGGTTTTTGGGTTTGGGTTGGGTTGGGAAAAATTTTTCTCTCGC [Trident RHA06 + antisense 1:1]
Result: 0.31

---

Target: Influenza hemagglutinin H3N2-HA (Influenza A virus)
Assay: BLI
Settings: three identical arms (SEQ 12) joined by Trebler, root TTTTT-Biotin
recorded_metric: pKd
# pKd: negative log10 of molar concentration; output just the value

Problem: Look up pKd for this sequence: GGGTTTGGGTTGGGTTGGGTTTTTGGGTTTGGGTTGGGTTGGGAAAAATTTTTCTCTCGC [Trimeric (trident) RHA06]
Result: 9.92
